- target_system: HIV-1 integrase (Human immunodeficiency virus type 1 group M subtype B, UniProt P04585)
- method: HIV-1 integrase inhibition assay (radiolabeled duplex substrate corresponding to the U5 end of the HIV LTR)
- Format: biochemical
- Procedure: For the purpose of Table 1 to 4, the HIV-1 integrase inhibition assay was carried out following a known procedure (Burke, Jr. T. R. et al., J. Med. Chem. 38, 4171-4178 (1995)). A suitable radiolabeled duplex substrate corresponding to the U5 end of the HIV LTR was used. For the purposes of Table 1 to 4 the HIV-1 integrase inhibition assay was based on a known procedure (Hazuda, D. J. et al., Nucleic Acids Res. 22 1121-1122 (1994)).
pIC50: −log10 of the molar value.
Reported pIC50 values for the following compounds.

Here is how some compounds turned out for pIC50.
# compound, pIC50
records = [
    ("O=C(O)CC[C@H](NC(=O)c1cc(F)ccc1O)C(=O)NCCc1cccs1 [Example 108]", "< 5.00"),
    ("COc1ccc(OC)c(NC(=O)[C@H](CCC(N)=O)NC(=O)c2ccc[nH]2)c1 [Example 91]", "< 5.00"),
    ("NC(=O)C[C@H](NC(=O)c1cc2cccc(O)c2cc1O)C(=O)NCCc1ccc(O)c(O)c1 [Example 61]", "< 5.30"),
    ("O=C(O)CC[C@H](NC(=O)c1cc(O)c2cccc(O)c2n1)C(=O)NCCc1cccs1 [Example 106]", "< 5.00"),
    ("CC(C)(C)OC(=O)CC[C@H](NC(=O)c1cc(O)c2cccc(O)c2n1)C(=O)NCCc1cccs1 [Example 105]", "< 5.00"),
]

Prompt: Hi! What's the reported pIC50 for CC(C)(C)OC(=O)N[C@@H](Cc1cn(-c2ccc([N+](=O)[O-])cc2[N+](=O)[O-])cn1)C(=O)NNC(=O)c1ccccc1O [Example 79] on HIV-1 integrase (Human immunodeficiency virus type 1 group M subtype B, UniProt P04585)?
Response: < 5.40

Prompt: Hi! What's the reported pIC50 for NC(=O)C[C@H](NC(=O)c1cc(O)c2cccc(O)c2n1)C(=O)NCCc1ccc(O)c(O)c1 [Example 67] on HIV-1 integrase (Human immunodeficiency virus type 1 group M subtype B, UniProt P04585)?
Response: < 5.30

---

Reported pIC50 values for the following compounds.
- target_system: UniProt P04585
- method: HIV-1 integrase inhibition assay (radiolabeled duplex substrate corresponding to the U5 end of the HIV LTR)
- Format: biochemical
pIC50: −log10 of the molar value.

Here is how some compounds turned out for pIC50.
# structure_smiles, pIC50
data = [
    ("O=C(O)CC[C@H](NC(=O)c1cccn1Cc1ccc(F)cc1)C(=O)NCCc1cccs1", "< 5.00"),
    ("O=C(N[C@@H](CO)C(=O)NCCc1ccc(O)c(O)c1)c1cc2ccccc2n1Cc1ccc(F)cc1", "< 5.00"),
    ("O=C(N[C@@H](Cc1cn(C(c2ccccc2)(c2ccccc2)c2ccccc2)cn1)C(=O)NCc1ccc(O)c(O)c1)c1ccc(O)c(O)c1", "< 6.00"),
]

Prompt: Could you share which pIC50 value was measured for "O=C(N[C@@H](Cc1ccc(O)cc1)C(=O)NCCc1ccc(O)c(O)c1)c1cnc(O)nc1O" ?
Response: < 5.00
